- Tested Target: recombinant human GAA (rhGAA, Myozyme) (Homo sapiens, UniProt P10253)
- Construct: purchased Genzyme
- Assay Summary: competitive FluoPol-ABPP assay on rhGAA with TAMRA-ABP II;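 also: fluorescence polarization read at 540 nm excitation and 590 nm emission, background-corrected, normalized to uninhibited probe labelling as 100% and excess cyclosulfate as 0%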
- Assay type: biochemical
- Measurement Setup: library screen, 5 μM inhibitor, 25 nM ABP II
I'd be grateful if you could share measured GAA FP% (residual FP-signal) for these entries.
Give bare numbers, in %.

Answered cases to consult:
>>> observed_value("N#Cc1ccccc1-c1ccc(COCCCCCN2C[C@H](O)[C@@H](O)[C@H](O)[C@H]2CO)cc1 [#ID 328]")
0.7
>>> observed_value("OC[C@@H]1[C@@H](O)[C@H](O)[C@@H](O)CN1CCCCCOCc1ccc2ccccc2c1 [#ID 58]")
7.7
>>> observed_value("CCCCCCCCCOCCCCCN1C[C@H](O)[C@@H](O)[C@H](O)[C@H]1CO [#ID 27]")
8.4

For every record below, what is its GAA FP% (residual FP-signal)?
1. CCCCN1C[C@H](O)[C@@H](O)[C@@H](O)[C@H]1CO [#ID 153]
2. OC[C@H]1N[C@H](CCCCCCOCC23CC4CC(CC(C4)C2)C3)[C@H](O)[C@@H](O)[C@@H]1O [Compound 8]

[14, 29]

Here are 3 compounds. What values of GAA FP% (residual FP-signal) were reported for them?
1. COc1ccccc1-c1ccc(COCCCCCN2C[C@H](O)[C@@H](O)[C@H](O)[C@H]2CO)cc1 [#ID 332]
2. N#Cc1ccc(-c2ccc(COCCCCCN3C[C@H](O)[C@@H](O)[C@H](O)[C@H]3CO)cc2)cc1 [#ID 309]
3. OC[C@@H]1[C@@H](O)[C@H](O)[C@@H](O)CN1CCCCOCCC12CC3CC(CC(C3)C1)C2 [#ID 203]

1. 0.8
2. 0.1
3. 9.2
